# EXPERIMENT NOTES: Oral bioavailability in rat
# Format: ADME, organism-based
# REPORTED CONDITIONS: in vivo
MEASURED METRIC: bioavailability

Completed entries (count: 4):
SAMPLE SMILES | MEASURED METRIC | ASSAY VALUE
Fc1cnc(-c2cc(-c3cnnc(-c4ccccc4F)c3)ccc2F)c(F)c1 | bioavailability | 11%
Fc1cnccc1-c1cc(-c2ccc(F)c(-c3ncccc3F)c2)cnn1 | bioavailability | 5%
Fc1cnc(-c2cc(-c3ccc(F)c(-c4ncc(F)cc4F)c3)cnn2)c(F)c1 | bioavailability | 88%
Fc1cnc(-c2cc(-c3cnnc(-c4c(F)cncc4F)c3)ccc2F)c(F)c1 | bioavailability | 50%

Please find the next compound below.
Problem: Could you please provide reported bioavailability for Fc1cnc(-c2cc(-c3ccc(F)c(-c4ncccc4F)c3)cnn2)c(F)c1 ? Thanks!
Solution: 100%

====

# EXPERIMENT NOTES: Stability in human assessed as liver microsomal turnover
# Type: ADME, Microsome
# REPORTED CONDITIONS: liver microsomes, read-out: Stability
MEASURED METRIC: metabolised (%)
Give bare numbers, in %.

Record excerpt, results attached:
SAMPLE SMILES | ASSAY VALUE
Fc1cnccc1-c1cc(-c2ccc(F)c(-c3ncccc3F)c2)cnn1 | 8
Fc1cnc(-c2cc(-c3ccc(F)c(-c4ncccc4F)c3)cnn2)c(F)c1 | 6
Fc1ccc(-c2cnnc(-c3ncccc3F)c2)cc1-c1ncccc1F | 5
Fc1cnc(-c2cc(-c3ccc(F)c(-c4ncc(F)cc4F)c3)cnn2)c(F)c1 | 3
Fc1ccc(-c2cnnc(-c3c(F)cccc3F)c2)cc1-c1ncccc1F | 13
Fc1cnc(-c2cc(-c3cnnc(-c4c(F)cncc4F)c3)ccc2F)c(F)c1 | 3

Below are some compounds; for each one, tell me its metabolised.
1. Fc1cnc(-c2cc(-c3cnnc(-c4c(F)cc(F)cc4F)c3)ccc2F)c(F)c1
2. Fc1ccc(-c2cnnc(-c3c(F)cncc3F)c2)cc1-c1ncccc1F
3. Fc1cnc(-c2cc(-c3cnnc(-c4ccccc4F)c3)ccc2F)c(F)c1

Solution:
1: 7; 2: 9; 3: 8

====

# SYSTEM TESTED: GABA-A receptor; alpha-5/beta-3/gamma-2 (Homo sapiens) (UniProt P18507+P28472+P31644)
# EXPERIMENT NOTES: Efficacy against recombinant human GABA-Aalpha5 plus beta-3-gamma-2 expressed in L(tk-) cells by whole cell patch clamp method relative to chlordiazepoxide
# Format: functional, cell-based
For each entry below, report its Efficacy value.
One number for each entry.

List Efficacy for every entry below, keeping the order given.
1. Fc1cnc(-c2cc(-c3cnnc(-c4ncccc4F)c3)ccc2F)c(F)c1
2. Fc1cnc(-c2cc(-c3cnnc(-c4c(F)cc(F)cc4F)c3)ccc2F)c(F)c1
3. Fc1cnc(-c2cc(-c3ccc(F)c(-c4ncccc4F)c3)cnn2)c(F)c1
4. Fc1cnc(-c2cc(-c3ccc(F)c(-c4ncc(F)cc4F)c3)cnn2)c(F)c1

Solution:
1: 0.14; 2: 0.14; 3: 0.4; 4: 0.01

====

Can you tell me metabolised for the items I'm about to list?
# EXPERIMENT NOTES: Stability in rat assessed as liver microsomal turnover
# Assay type: ADME, Microsome
# REPORTED CONDITIONS: liver microsomes, read-out: Stability
Give bare numbers, in %.

SAMPLE SMILES | UNIT TAG | metabolised
Fc1ccc(-c2cnnc(-c3c(F)cccc3F)c2)cc1-c1ncccc1F | % | 19

Could you tell me metabolised for each of these compounds? They are listed below.
1. Fc1cnccc1-c1cc(-c2ccc(F)c(-c3ncccc3F)c2)cnn1
2. Fc1cnc(-c2cc(-c3ccc(F)c(-c4ncc(F)cc4F)c3)cnn2)c(F)c1
3. Fc1ccc(-c2cc(-c3ccc(F)c(-c4ncc(F)cc4F)c3)cnn2)cc1

Solution:
17
3
7

====

# EXPERIMENT NOTES: Plasma clearance in rat
# Assay type: ADME, organism-based
MEASURED METRIC: clearance (mL/min/kg)
One number for each entry, in mL/min/kg.

Known clearance results, listed for orientation:
SAMPLE SMILES | clearance / mL/min/kg
Fc1cnc(-c2cc(-c3cnnc(-c4c(F)cncc4F)c3)ccc2F)c(F)c1 | 59
Fc1cnc(-c2cc(-c3ccc(F)c(-c4ncc(F)cc4F)c3)cnn2)c(F)c1 | 1.3
Fc1cnc(-c2cc(-c3ccc(F)c(-c4ncccc4F)c3)cnn2)c(F)c1 | 3
Fc1cnc(-c2cc(-c3cnnc(-c4ccccc4F)c3)ccc2F)c(F)c1 | 30

Okay, next one:
Problem: Name the recorded clearance of the compound listed here: Fc1cnccc1-c1cc(-c2ccc(F)c(-c3ncccc3F)c2)cnn1
Solution: 91

====

# SYSTEM TESTED: GABA-A receptor; anion channel (Rattus norvegicus) (UniProt O09028+P15431+P18506+P18508+P19969+P20236+P23574+P23576+P28471+P28473+P30191+P62813+P63079+P63138+Q91ZM7+Q9ES14)
# EXPERIMENT NOTES: Receptor occupancy in vivo by displacement of [3H]Ro 15-1788 binding from GABA-A receptor in rat, po
# Assay type: functional, organism-based
MEASURED METRIC: Occ50 (mg/kg)
Answers are plain numbers, in mg/kg.

Previously resolved entries follow.
SAMPLE SMILES | ASSAY VALUE
Fc1cnc(-c2cc(-c3cnnc(-c4ccccc4F)c3)ccc2F)c(F)c1 | 3
Fc1ccc(-c2cc(-c3ccc(F)c(-c4ncc(F)cc4F)c3)cnn2)c(F)c1 | 4.6

Hey, can you go through the list below and give me Occ50 for every item?
1. Fc1cnc(-c2cc(-c3ccc(F)c(-c4ncc(F)cc4F)c3)cnn2)c(F)c1
2. Fc1cnccc1-c1cc(-c2ccc(F)c(-c3ncccc3F)c2)cnn1

Solution:
1. 0.52
2. 7.2

Answer for every listed entry: what is its Occ50? The entries follow.
1. Fc1cnc(-c2cc(-c3cnnc(-c4ccncc4F)c3)ccc2F)c(F)c1
2. Fc1cnc(-c2cc(-c3cnnc(-c4c(F)cncc4F)c3)ccc2F)c(F)c1
3. Fc1cnc(-c2cc(-c3ccc(F)c(-c4ncccc4F)c3)cnn2)c(F)c1

Solution:
15.3
0.22
0.09

====

# SYSTEM TESTED: GABA-A receptor; alpha-3/beta-3/gamma-2 (Homo sapiens) (UniProt P18507+P28472+P34903)
# EXPERIMENT NOTES: Efficacy against recombinant human GABA-Aalpha3 plus beta-3-gamma-2 expressed in L(tk-) cells by whole cell patch clamp method relative to chlordiazepoxide
# Format: functional, cell-based
MEASURED METRIC: Efficacy

In the examples that follow, each entry is paired with its recorded Efficacy.
SAMPLE SMILES | Efficacy
Fc1ccccc1-c1cc(-c2ccc(F)c(-c3ncccc3F)c2)cnn1 | 0.31
Fc1cnc(-c2cc(-c3cnnc(-c4ncccc4F)c3)ccc2F)c(F)c1 | 0.17
Fc1ccc(-c2cnnc(-c3c(F)cncc3F)c2)cc1-c1ncccc1F | 0.39
Fc1cnccc1-c1cc(-c2ccc(F)c(-c3ncccc3F)c2)cnn1 | 0.58
Fc1cnc(-c2cc(-c3cnnc(-c4ccncc4F)c3)ccc2F)c(F)c1 | 0.41

Give me Efficacy for each of these compounds, listed below.
1. Fc1ccc(-c2cnnc(-c3c(F)cccc3F)c2)cc1-c1ncccc1F
2. Fc1ccc(-c2cc(-c3ccc(F)c(-c4ncc(F)cc4F)c3)cnn2)cc1
3. Fc1ccc(-c2cc(-c3ccc(F)c(-c4ncc(F)cc4F)c3)cnn2)c(F)c1
4. Fc1cnc(-c2cc(-c3cnnc(-c4c(F)cc(F)cc4F)c3)ccc2F)c(F)c1

Solution:
0.24
0.21
0.42
0.4

For every item below, please supply its Efficacy.
1. Fc1ccc(-c2cnnc(-c3ncccc3F)c2)cc1-c1ncccc1F
2. Fc1cnc(-c2cc(-c3cnnc(-c4ccccc4F)c3)ccc2F)c(F)c1
3. Fc1cnc(-c2cc(-c3ccc(F)c(-c4ncc(F)cc4F)c3)cnn2)c(F)c1
4. Fc1cnc(-c2cc(-c3cnnc(-c4c(F)cncc4F)c3)ccc2F)c(F)c1
5. Fc1cnc(-c2cc(-c3ccc(F)c(-c4ncccc4F)c3)cnn2)c(F)c1

Solution:
[0.4, 0.4, 0.44, 0.39, 0.7]

====

# SYSTEM TESTED: GABA-A receptor; alpha-5/beta-3/gamma-2 (Homo sapiens, UniProt P18507+P28472+P31644)
# Sequence (P18507 whole entry): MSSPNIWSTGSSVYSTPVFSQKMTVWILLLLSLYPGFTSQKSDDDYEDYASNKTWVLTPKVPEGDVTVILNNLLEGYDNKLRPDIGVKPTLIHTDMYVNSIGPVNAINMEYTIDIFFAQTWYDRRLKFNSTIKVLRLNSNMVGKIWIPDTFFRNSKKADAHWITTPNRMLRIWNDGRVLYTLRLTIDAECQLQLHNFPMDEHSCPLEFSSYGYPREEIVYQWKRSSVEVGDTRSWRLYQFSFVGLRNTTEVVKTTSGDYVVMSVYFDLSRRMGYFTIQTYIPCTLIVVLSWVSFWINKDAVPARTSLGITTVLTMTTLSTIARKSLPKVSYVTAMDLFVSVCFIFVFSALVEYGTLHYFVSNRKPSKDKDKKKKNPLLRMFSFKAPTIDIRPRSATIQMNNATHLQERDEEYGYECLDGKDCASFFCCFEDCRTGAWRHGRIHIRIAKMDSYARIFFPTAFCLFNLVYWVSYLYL
# Sequence (P28472 whole entry): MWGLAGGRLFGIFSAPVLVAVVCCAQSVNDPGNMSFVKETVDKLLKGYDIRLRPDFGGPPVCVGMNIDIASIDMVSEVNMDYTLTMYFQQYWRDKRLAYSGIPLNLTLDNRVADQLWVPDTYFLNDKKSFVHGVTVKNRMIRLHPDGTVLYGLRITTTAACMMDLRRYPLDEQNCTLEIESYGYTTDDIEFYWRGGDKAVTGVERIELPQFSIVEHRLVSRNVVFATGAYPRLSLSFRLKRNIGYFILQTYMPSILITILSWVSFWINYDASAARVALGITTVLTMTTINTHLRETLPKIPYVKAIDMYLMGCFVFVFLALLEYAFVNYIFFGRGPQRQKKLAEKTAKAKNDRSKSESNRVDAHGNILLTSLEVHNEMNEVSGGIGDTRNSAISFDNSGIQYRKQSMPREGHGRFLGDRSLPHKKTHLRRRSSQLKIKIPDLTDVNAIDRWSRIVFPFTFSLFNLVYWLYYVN
# Sequence (P31644 whole entry): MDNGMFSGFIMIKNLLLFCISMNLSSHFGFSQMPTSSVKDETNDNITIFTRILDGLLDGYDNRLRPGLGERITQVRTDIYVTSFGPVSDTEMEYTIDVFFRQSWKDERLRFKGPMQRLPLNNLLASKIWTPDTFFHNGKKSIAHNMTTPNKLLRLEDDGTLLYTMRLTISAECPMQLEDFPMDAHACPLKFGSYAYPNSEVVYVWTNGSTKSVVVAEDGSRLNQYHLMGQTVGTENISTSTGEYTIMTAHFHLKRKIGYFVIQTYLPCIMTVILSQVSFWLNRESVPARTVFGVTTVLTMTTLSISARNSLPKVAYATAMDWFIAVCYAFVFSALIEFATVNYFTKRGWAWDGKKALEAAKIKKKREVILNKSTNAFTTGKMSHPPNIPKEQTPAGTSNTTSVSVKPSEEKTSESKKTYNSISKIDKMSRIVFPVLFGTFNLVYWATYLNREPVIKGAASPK
# EXPERIMENT NOTES: Displacement of [3H]Ro-151788 from recombinant human GABA-Aalpha5 receptor plus beta3gamma2
MEASURED METRIC: Ki

See these solved cases before continuing.
SAMPLE SMILES | SYSTEM TESTED | Ki
Fc1cnccc1-c1cc(-c2ccc(F)c(-c3ncccc3F)c2)cnn1 | GABA-A receptor; alpha-5/beta-3/gamma-2 (Homo sapiens, UniProt P18507+P28472+P31644) | 7.7 nM
Fc1cnc(-c2cc(-c3cnnc(-c4ncccc4F)c3)ccc2F)c(F)c1 | GABA-A receptor; alpha-5/beta-3/gamma-2 (Homo sapiens, UniProt P18507+P28472+P31644) | 3.2 nM

Each molecule below has a recorded value; state its Ki.
1. Fc1cnc(-c2cc(-c3cnnc(-c4ccccc4F)c3)ccc2F)c(F)c1
2. Fc1cnc(-c2cc(-c3cnnc(-c4c(F)cncc4F)c3)ccc2F)c(F)c1
3. Fc1ccc(-c2cnnc(-c3ncccc3F)c2)cc1-c1ncccc1F

Solution:
["0.7 nM", "6 nM", "2.4 nM"]
